Target: Aurora kinase A (Homo sapiens) (UniProt O14965);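 also: each reported value is a mean percent inhibition of Aurora-A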
Sequence (whole entry): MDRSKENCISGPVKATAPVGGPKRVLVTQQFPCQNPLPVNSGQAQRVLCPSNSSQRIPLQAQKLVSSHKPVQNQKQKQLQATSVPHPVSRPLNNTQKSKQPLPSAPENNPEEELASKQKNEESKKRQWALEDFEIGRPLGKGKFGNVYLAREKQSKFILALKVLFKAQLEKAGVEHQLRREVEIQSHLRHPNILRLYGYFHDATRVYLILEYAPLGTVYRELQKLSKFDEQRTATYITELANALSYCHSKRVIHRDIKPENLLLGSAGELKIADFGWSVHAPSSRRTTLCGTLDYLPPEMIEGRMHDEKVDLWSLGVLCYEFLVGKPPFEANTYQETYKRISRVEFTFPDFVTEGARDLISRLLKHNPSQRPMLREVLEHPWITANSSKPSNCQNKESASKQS
Settings: at 0.1 µM
Would you mind telling me the reported inhibition of each entry?
Your answer should be a plain number; it is taken to be in %.

Observed inhibition, Aurora kinase A (Homo sapiens) (UniProt O14965), O=C(Nc1n[nH]c2nc(-c3ccco3)ccc12)C1CC1 : 2.22

Observed inhibition, Aurora kinase A (Homo sapiens) (UniProt O14965), COC(=O)Nc1nc2ccc(Sc3ccc(NC(=O)Nc4cc(C(F)(F)F)ccc4F)cc3)cc2[nH]1 : 1.16

Observed inhibition, Aurora kinase A (Homo sapiens) (UniProt O14965), NS(=O)(=O)c1ccc(N/N=C2\C(=O)Nc3ccc(C(=O)NCCCn4ccnc4)cc32)cc1 : 5.44

Observed inhibition, Aurora kinase A (Homo sapiens) (UniProt O14965), Fc1ccc(-c2nc3n(c2-c2ccncc2)CCS3)cc1 : -1.28

Observed inhibition, Aurora kinase A (Homo sapiens) (UniProt O14965), NS(=O)(=O)c1ccc(Nc2cc(-c3ccc(O)c(F)c3)n[nH]2)cc1 : -2.14

Observed inhibition, Aurora kinase A (Homo sapiens) (UniProt O14965), O=C(Nc1ccc(Oc2ccc3[nH]c(NC(=O)c4ccccc4)nc3c2)cc1)Nc1cc(C(F)(F)F)ccc1F : 1.31

Observed inhibition, Aurora kinase A (Homo sapiens) (UniProt O14965), NC(=O)Cc1ccccc1Oc1nccc(-c2c(-c3ccc(F)cc3)ncn2C2CCNCC2)n1 : 1.9

Observed inhibition, Aurora kinase A (Homo sapiens) (UniProt O14965), NC(=O)c1ccc(Oc2nccc(-c3c(-c4ccc(F)cc4)ncn3C3CCNCC3)n2)cc1 : 3.58

Observed inhibition, Aurora kinase A (Homo sapiens) (UniProt O14965), Cc1nnc(-c2ccc(C)c(-c3ccc(C(=O)NCc4ccc(Cl)cc4)cc3)c2)o1 : -1.43

Observed inhibition, Aurora kinase A (Homo sapiens) (UniProt O14965), Cc1ccc(C(=O)NC(C)C)cc1-c1ccc(C(=O)NCC2CC2)cc1 : -3.2

----------
Would you mind telling me the reported inhibition of each entry?
Target: Ephrin type-B receptor 3 (Homo sapiens);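 also: reported value is the mean percent inhibition of EPHB3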
Conditions: at 0.1 µM
Your answer should be a plain number; it is taken to be in %.

Documented inhibition of O=C(Nc1n[nH]c2cc(-c3ccccc3)ccc12)C1CC1 : 2.9

Documented inhibition of COc1cc2ncn(-c3cc(OCc4ccccc4C(F)(F)F)c(C(C)=O)s3)c2cc1OC : 3.62

Documented inhibition of NS(=O)(=O)c1ccc(Nc2cc(-c3ccc(O)c(F)c3)n[nH]2)cc1 : -8.08

Documented inhibition of O=C1NC(=O)C(c2cccc(Cl)c2)=C1Nc1ccc(Cl)c(C(=O)O)c1 : 10.6

Documented inhibition of NS(=O)(=O)c1ccc(N/N=C2\C(=O)Nc3ccc(-c4cnco4)cc32)cc1 : -2.23

Documented inhibition of Fc1ccc(-c2ncn(C3CCNCC3)c2-c2ccnc(Oc3ccc4c(c3)OCO4)n2)cc1 : 5.97

Documented inhibition of N#Cc1ccc(Oc2nccc(-c3c(-c4ccc(F)cc4)ncn3C3CCNCC3)n2)cc1 : 5.17

Documented inhibition of CN(C)c1ccc2c(c1)/C(=C/Nc1ccc(S(N)(=O)=O)cc1)C(=O)N2 : 4.11

Documented inhibition of CCC(=O)Nc1ccc(C)c(-c2ccc(C(=O)NCC3CC3)cc2)c1 : 2.63

Documented inhibition of c1ccc(Oc2ccc(Nc3ncc(-c4ccccc4)o3)cc2)cc1 : 2.67

Documented inhibition of Cc1ccc(C(=O)NC(C)C)cc1-c1ccc(C(=O)NCC2CC2)cc1 : -7.05

Documented inhibition of NS(=O)(=O)c1ccc(N/N=C2\C(=O)Nc3ccc(C(=O)NCCCn4ccnc4)cc32)cc1 : 5.75

Documented inhibition of O=C(NCC1CC1)c1ccc(-c2cccc(C(=O)NC3CC3)c2)cc1 : 3.55

Documented inhibition of COc1cc(Nc2ncc(-c3ccccc3)o2)cc(OC)c1OC : -5.87

Documented inhibition of COc1cc(N2CCN(C(C)C)CC2)ccc1Nc1nc(Nc2ccc(F)cc2C(=O)NC[C@@H](O)CO)c2cc[nH]c2n1 : 0.85

Documented inhibition of COc1cccc(/C=N/Nc2ncnc3c2cnn3-c2cccc(OC)c2)c1 : 1.82

Documented inhibition of CN1CCN(CCCNc2nc3ccc(Oc4ccc(NC(=O)Nc5cc(C(F)(F)F)ccc5F)cc4)cc3[nH]2)CC1 : -3.09

Documented inhibition of C#Cc1cccc(Nc2ncnc3ccc(OCCCCNCCS(C)(=O)=O)cc23)c1 : 4.21

Documented inhibition of CN(C)CCOc1ccc(-c2cc(-c3ccc4c(c3)CCC4=NO)c(-c3ccncc3)o2)cc1 : -0.49

Documented inhibition of Fc1ccc(-c2ncn(C3CCNCC3)c2-c2ccnc(Oc3ccc(F)c(F)c3)n2)cc1 : -0.46

Documented inhibition of CCc1ccc(Oc2nccc(-c3c(-c4ccc(F)cc4)ncn3C3CCNCC3)n2)cc1 : 4.55

Documented inhibition of Fc1ccc(-c2nc3n(c2-c2ccncc2)CCS3)cc1 : 2.13

Documented inhibition of COc1ccc(C2=C(N3CCc4ccccc43)C(=O)NC2=O)cc1 : 3.73

Documented inhibition of CS(=O)(=O)CCNCc1cc(-c2cc3c(Nc4ccc(OCc5cccc(F)c5)c(Cl)c4)ncnc3s2)cs1 : 0.62

----------
Target: Cyclin-dependent kinase 2 (Homo sapiens) (UniProt P24941);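 also: mean inhibition of the CDK2–cyclin A kinase complex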
Details: at 1 µM
ASSAY METRIC: inhibition (%)
Your answer should be a plain number; it is taken to be in %.

Documented inhibition of Clc1ccc(CNc2nccc(-c3cnn4ncccc34)n2)cc1 : 17.6

Documented inhibition of COc1cc(Nc2ncc3c(C)nc(-c4cccc(Oc5ccccc5)c4)n3n2)cc(OC)c1OC : 2.37

Documented inhibition of CCN(CC)Cc1ccc(Nc2nccc(-c3cnn4ncccc34)n2)cc1 : 82.5

Documented inhibition of CCS(=O)(=O)c1ccc(OC)c(Nc2ncc(-c3ccccc3Cl)o2)c1 : 3.52

Documented inhibition of CN(C)c1ccc2c(c1)/C(=C/Nc1ccc(S(N)(=O)=O)cc1)C(=O)N2 : 82.6

Documented inhibition of NCc1ccc(-n2c(-c3nonc3N)nc3cnccc32)cc1 : 30.4

Documented inhibition of O=C(NCC1CC1)c1ccc(-c2cccc(C(=O)NC3CC3)c2)cc1 : 9.03

Documented inhibition of COc1cccc(-n2cnc3c(N/N=C/c4ccncc4)ncnc32)c1 : 8.02

Documented inhibition of COc1cc2ncn(-c3cc(OCCc4ccccc4)c(C(N)=O)s3)c2cc1OC : 3.19

Documented inhibition of COc1ccc2cc(-c3c(-c4ccncc4)nc(-c4ccc([S+](C)[O-])cc4C)n3C)ccc2c1 (stereo not given) : -1.45

Documented inhibition of Fc1ccc(-c2ncn(C3CCNCC3)c2-c2ccnc(Oc3ccc(Oc4ccccc4)cc3)n2)cc1 : 4.28

Documented inhibition of NC(=O)Cc1ccccc1Oc1nccc(-c2c(-c3ccc(F)cc3)ncn2C2CCNCC2)n1 : 2

Documented inhibition of C[C@@H](Oc1cc(-n2cnc3ccc(OCC4CCN(C)CC4)cc32)sc1C(N)=O)c1ccccc1Cl : 4.03

Documented inhibition of CN1CCN(CCCNc2nc3ccc(Oc4ccc(NC(=O)Nc5cc(C(F)(F)F)ccc5F)cc4)cc3[nH]2)CC1 : 5.29

Documented inhibition of NS(=O)(=O)c1ccc(N/N=C2\C(=O)Nc3ccc(C(=O)NCCCn4ccnc4)cc32)cc1 : 97.9

Documented inhibition of FC(F)(F)c1cccc(Nc2nccc(-c3cnn4nc(-c5ccccc5)ccc34)n2)c1 : 13.5

Documented inhibition of CS(=O)(=O)CCNCc1cc(-c2cc3c(Nc4ccc(OCc5cccc(F)c5)c(Cl)c4)ncnc3s2)cs1 : 1.47

Documented inhibition of Fc1ccc(-c2ncn(C3CCNCC3)c2-c2ccnc(Oc3ccc4c(c3)OCO4)n2)cc1 : 3.44

Documented inhibition of Nc1nccc(-c2c(-c3ccc(F)cc3)ncn2C2CCC(O)CC2)n1 (stereo not given) : -4.73

Documented inhibition of CCC(=O)Nc1ccc(C)c(-c2ccc(C(=O)NCC3CC3)cc2)c1 : 3.06
